Each record here notes measured IC50.
# test system: BTK-WT (Homo sapiens)
# Construct: purified from insect cells as a full-length construct containing an N-terminal 6X-His tag; His6 (N); made in house; host or cells: insect cells (baculovirus Sf21 in Method B)
# Sequence (Q06187 whole entry): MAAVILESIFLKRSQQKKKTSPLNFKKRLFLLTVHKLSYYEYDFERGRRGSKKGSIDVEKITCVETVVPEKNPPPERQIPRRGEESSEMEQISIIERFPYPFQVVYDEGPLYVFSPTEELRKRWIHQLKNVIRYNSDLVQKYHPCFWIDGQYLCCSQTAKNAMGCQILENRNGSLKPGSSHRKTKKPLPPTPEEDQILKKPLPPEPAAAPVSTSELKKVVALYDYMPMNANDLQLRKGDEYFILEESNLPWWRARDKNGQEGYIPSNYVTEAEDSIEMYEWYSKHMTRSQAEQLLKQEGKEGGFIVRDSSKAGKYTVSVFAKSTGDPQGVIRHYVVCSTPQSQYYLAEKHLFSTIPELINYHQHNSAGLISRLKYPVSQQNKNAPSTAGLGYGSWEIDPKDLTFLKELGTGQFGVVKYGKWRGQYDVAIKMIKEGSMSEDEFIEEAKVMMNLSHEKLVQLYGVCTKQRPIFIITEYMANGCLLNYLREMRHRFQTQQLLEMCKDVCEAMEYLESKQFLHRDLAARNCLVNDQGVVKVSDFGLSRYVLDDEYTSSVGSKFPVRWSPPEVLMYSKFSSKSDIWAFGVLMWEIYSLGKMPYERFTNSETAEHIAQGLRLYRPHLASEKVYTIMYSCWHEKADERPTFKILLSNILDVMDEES
# protocol details: Btk in vitro inhibitory activity (one of Method A TR-FRET, Method B electrophoretic mobility shift, Method C radiometric filter binding)
# Assay type: biochemical
# settings: D-compounds panel data; read-out: IC50 BTK-WT
metric: IC50

> print(dat)
                            compound.smiles  reported.result
1  C[C@@H]1[C@H](NC(=O)c2ccc(C3CC3)cc2F)CCCN1c1cnc(C(N)=O)c(Nc2ccc3ncccc3c2)n1     10 to 100 nM
2  C[C@@H]1[C@H](NC(=O)c2ccc(C3CC3)cn2)CCCN1c1cnc(C(N)=O)c(Nc2ccc(N3CCN(C)CC3)cc2)n1          ≤ 10 nM
3  C[C@@H]1[C@H](NC(=O)c2ccc(C3CC3)cc2)CCCN1c1cnc(C(N)=O)c(Nc2ccc(N3CCC(C(=O)N(C)C)CC3)cc2)n1          ≤ 10 nM
4  COC(C)(C)c1ccc(C(=O)N[C@@H]2CCCN(c3cnc(C(N)=O)c(Nc4cnn(C)c4)n3)[C@@H]2C)cc1          ≤ 10 nM
5  C[C@@H]1[C@H](NC(=O)c2ccc(C3CC3)cc2)CCCN1c1cnc(C(N)=O)c(Nc2cnn(CC3CCOCC3)c2)n1          ≤ 10 nM
6  C[C@@H]1[C@H](NC(=O)c2ccc(C3CC3)cc2)CCCN1c1cnc(C(N)=O)c(Nc2ccc(N3CCN(C)CC3)c(F)c2)n1          ≤ 10 nM

----------
# test system: TEC (Homo sapiens)
# Sequence (P42680 1-631): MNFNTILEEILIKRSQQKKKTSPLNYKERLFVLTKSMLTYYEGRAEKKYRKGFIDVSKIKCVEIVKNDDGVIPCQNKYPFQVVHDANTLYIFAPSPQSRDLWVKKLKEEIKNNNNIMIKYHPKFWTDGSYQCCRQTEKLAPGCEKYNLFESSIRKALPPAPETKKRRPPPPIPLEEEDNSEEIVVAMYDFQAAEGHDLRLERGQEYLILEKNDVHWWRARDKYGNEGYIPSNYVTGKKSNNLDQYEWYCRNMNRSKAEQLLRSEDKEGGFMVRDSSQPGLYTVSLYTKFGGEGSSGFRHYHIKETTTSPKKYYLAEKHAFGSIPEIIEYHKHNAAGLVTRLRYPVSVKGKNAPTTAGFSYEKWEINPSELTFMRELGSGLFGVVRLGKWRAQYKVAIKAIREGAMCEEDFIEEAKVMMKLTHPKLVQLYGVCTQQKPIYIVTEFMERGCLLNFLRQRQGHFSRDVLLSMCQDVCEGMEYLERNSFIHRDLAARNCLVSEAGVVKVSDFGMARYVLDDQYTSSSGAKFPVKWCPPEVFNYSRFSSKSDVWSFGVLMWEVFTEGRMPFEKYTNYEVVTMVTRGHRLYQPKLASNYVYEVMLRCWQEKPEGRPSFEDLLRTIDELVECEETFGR
# protocol details: Inhibition of a panel of kinases, in vitro HotSpot kinase assay: TEC
# Assay type: biochemical
# settings: D-compounds panel data; 1 μM ATP
pIC50: −log10 of the molar value.
Each record here notes measured pIC50.
metric: pIC50

molecule	reported result
Cn1cc(Nc2nc(N3CCC[C@@H](NC(=O)c4ccc(C5CC5)cc4)C3)nnc2C(N)=O)cn1	7.00 to 8.00
Cn1cc(Nc2nc(N3CCC[C@H]4[C@@H]3CCN4C(=O)c3ccc(C4CC4)cc3)cnc2C(N)=O)cn1	6.00 to 7.00
C[C@@H]1[C@H](NC(=O)c2ccc(C3CC3)cc2)CCCN1c1cnc(C(N)=O)c(Nc2ccc3c(c2)CCOC3)n1	7.00 to 8.00
CN1CCN(C(=O)c2ccc(Nc3nc(N4CCC[C@@H](n5ccc6cc(C7CC7)ccc6c5=O)C4)cnc3C(N)=O)cc2)CC1	7.00 to 8.00
C[C@@H]1[C@H](NC(=O)N(C)C)CCCN1c1nnc(C(N)=O)c(Nc2cnn(C)c2)n1	7.00 to 8.00
C[C@@H]1[C@H](NC(=O)c2ccc(C(C)(O)C(F)(F)F)cc2)CCCN1c1cnc(C(N)=O)c(Nc2cnn(C)c2)n1 (single isomer, unassigned) [Example D-213]	≥ 8.00
C[C@@H]1[C@H](NC(=O)c2ccc(C3CC3)cc2)CCCN1c1cnc(C(N)=O)c(Nc2cnn(C3CCN(C(=O)C4(C)COC4)CC3)c2)n1	≥ 8.00
C[C@@H]1[C@H](NC(=O)c2ccc(C3(O)CCCC3)cc2)CCCN1c1cnc(C(N)=O)c(Nc2cnn(C)c2)n1	≥ 8.00
C[C@@H]1[C@H](NC(=O)c2ccc(C3CC3)cc2)CCCN1c1cnc(C(N)=O)c(Nc2cn[nH]c2)n1	7.00 to 8.00
CN(C)C(=O)N[C@H]1CCCN(c2cnc(C(N)=O)c(Nc3ccc(C4(C)CCN(C5CCCC5)CC4)cc3)n2)[C@H]1CO	< 5.00
C[C@@H]1[C@H](NC(=O)N(C)C)CCCN1c1cnc(C(N)=O)c(Nc2ccc(OC3CCN(C)CC3)cc2)n1	7.00 to 8.00

----------
# test system: BTK-WT (Homo sapiens)
# Construct: purified from insect cells as a full-length construct containing an N-terminal 6X-His tag; His6 (N); made in house; host or cells: insect cells (baculovirus Sf21 in Method B)
# protocol details: Btk in vitro inhibitory activity (one of Method A TR-FRET, Method B electrophoretic mobility shift, Method C radiometric filter binding)
# Format: biochemical
# settings: D-compounds panel data; read-out: IC50 BTK-WT
pIC50: −log10 of the molar value.
metric: pIC50

> print(dat)
                            compound.smiles            test.system  reported.result
1  C[C@@H]1[C@H](NC(=O)c2ccc(C3CC3)cc2)CCCN1c1cnc(C(N)=O)c(Nc2cn[nH]c2)n1  BTK-WT (Homo sapiens)           ≥ 8.00
2  CN1CCN(c2ccc(Nc3nc(N4CCC[C@@H](n5ccc6cc(C7CC7)cc(F)c6c5=O)C4)cnc3C(N)=O)cc2)CC1  BTK-WT (Homo sapiens)           ≥ 8.00
3  C[C@@H]1[C@H](NC(=O)N(C)C)CCCN1c1cnc(C(N)=O)c(Nc2ccc(N3CCC(F)(F)CC3)cc2)n1  BTK-WT (Homo sapiens)           ≥ 8.00
4  C[C@@H]1[C@H](NC(=O)c2ccc3cnn(C)c3c2)CCCN1c1cnc(C(N)=O)c(Nc2cnn(C)c2)n1  BTK-WT (Homo sapiens)           ≥ 8.00
5  C[C@@H]1[C@H](N2CCN(C)C2=O)CCCN1c1cnc(C(N)=O)c(Nc2cnn(C)c2)n1  BTK-WT (Homo sapiens)     7.00 to 8.00
6  Cn1cc(Nc2nc(N3CCC[C@@H](n4ccc5cc(C6CC6)ccc5c4=O)C3)cnc2C(N)=O)cn1  BTK-WT (Homo sapiens)           ≥ 8.00

----------
Each record here notes measured IC50.
# test system: EGFR (Homo sapiens, UniProt P00533)
# Sequence (P00533 25-1210): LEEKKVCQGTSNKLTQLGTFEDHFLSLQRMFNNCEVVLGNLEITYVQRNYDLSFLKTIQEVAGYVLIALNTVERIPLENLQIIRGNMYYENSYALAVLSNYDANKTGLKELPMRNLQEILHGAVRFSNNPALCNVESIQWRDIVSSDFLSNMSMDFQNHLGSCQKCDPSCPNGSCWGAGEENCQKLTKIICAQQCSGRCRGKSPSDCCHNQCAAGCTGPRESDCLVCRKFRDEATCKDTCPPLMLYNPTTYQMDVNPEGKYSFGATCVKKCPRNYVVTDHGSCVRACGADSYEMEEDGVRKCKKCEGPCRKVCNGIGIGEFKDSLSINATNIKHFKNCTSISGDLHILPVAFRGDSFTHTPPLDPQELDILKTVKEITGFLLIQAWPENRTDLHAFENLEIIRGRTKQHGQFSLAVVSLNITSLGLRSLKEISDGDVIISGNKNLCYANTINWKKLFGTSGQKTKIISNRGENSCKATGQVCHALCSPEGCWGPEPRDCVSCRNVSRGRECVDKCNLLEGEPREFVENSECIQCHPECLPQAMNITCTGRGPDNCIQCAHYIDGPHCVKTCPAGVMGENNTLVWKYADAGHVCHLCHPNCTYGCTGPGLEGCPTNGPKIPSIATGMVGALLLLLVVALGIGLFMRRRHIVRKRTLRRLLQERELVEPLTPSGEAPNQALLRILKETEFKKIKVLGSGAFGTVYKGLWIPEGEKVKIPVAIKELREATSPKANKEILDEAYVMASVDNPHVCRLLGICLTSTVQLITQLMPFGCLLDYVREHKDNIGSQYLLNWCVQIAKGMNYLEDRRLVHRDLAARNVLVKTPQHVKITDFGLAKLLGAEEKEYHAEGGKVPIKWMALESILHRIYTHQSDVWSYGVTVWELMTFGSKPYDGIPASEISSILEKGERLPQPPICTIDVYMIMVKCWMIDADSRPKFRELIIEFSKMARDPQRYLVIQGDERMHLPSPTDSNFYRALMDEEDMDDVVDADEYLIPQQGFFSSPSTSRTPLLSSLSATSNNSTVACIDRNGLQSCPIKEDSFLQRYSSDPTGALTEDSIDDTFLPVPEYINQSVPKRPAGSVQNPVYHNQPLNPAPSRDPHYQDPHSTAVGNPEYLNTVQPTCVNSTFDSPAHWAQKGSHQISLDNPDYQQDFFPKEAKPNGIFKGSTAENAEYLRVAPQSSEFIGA
# protocol details: Inhibition of a panel of kinases, in vitro HotSpot kinase assay: EGFR
# Assay type: biochemical
# settings: D-compounds panel data; 1 μM ATP
metric: IC50

molecule	reported result
C[C@@H]1[C@H](NC(=O)c2ccc(C3CC3)nc2)CCCN1c1cnc(C(N)=O)c(Nc2ccc(N3CCN(C)CC3)cc2)n1	100 to 1000 nM
C[C@@H]1[C@H](NC(=O)c2ccc(C(O)C(F)(F)F)cc2)CCCN1c1cnc(C(N)=O)c(Nc2cnn(C)c2)n1 (single isomer, unassigned) [Example D-250]	100 to 1000 nM
C[C@@H]1[C@H](NC(=O)c2ccc(C3CC3)nc2)CCCN1c1cnc(C(N)=O)c(Nc2ccc(OC3CCC(F)(F)CC3)cc2)n1	> 10000 nM
C[C@@H]1[C@H](NC(=O)c2ccc(C3CC3)cc2)CCCN1c1cnc(C(N)=O)c(Nc2ccc(C3(C)CCN(C4CCCC4)CC3)cc2)n1	100 to 1000 nM
C[C@@H]1[C@H](NC(=O)c2ccc(C(F)(F)F)cn2)CCCN1c1cnc(C(N)=O)c(Nc2cnn(C)c2)n1	100 to 1000 nM
C[C@@H]1[C@H](NC(=O)N(C)C)CCCN1c1cnc(C(N)=O)c(Nc2cc(C3CCN(C4CCCC4)CC3)ns2)n1	100 to 1000 nM
C[C@@H]1[C@H](NC(=O)c2ccc(C3CC3)cc2F)CCCN1c1cnc(C(N)=O)c(Nc2cnn(C)c2)c1	1000 to 10000 nM
C[C@@H]1[C@H](NC(=O)c2ccc3c(c2)OCCO3)CCCN1c1cnc(C(N)=O)c(Nc2cnn(C)c2)n1	100 to 1000 nM
C[C@@H]1[C@H](NC(=O)c2ccc(C(F)(F)F)cc2)CCCN1c1cnc(C(N)=O)c(Nc2ccc(N3CCN(C)CC3)cc2)n1	100 to 1000 nM
C[C@@H]1[C@H](NC(=O)c2ccc(C3CC3)cc2F)CCCN1c1cnc(C(N)=O)c(Nc2ccc(C3(C)CCN(C4CCC4)CC3)cc2)n1	100 to 1000 nM
C[C@@H]1[C@H](NC(=O)c2ccc(C3COC3)cc2)CCCN1c1cnc(C(N)=O)c(Nc2cnn(C)c2)n1	1000 to 10000 nM
C[C@@H]1[C@H](NC(=O)c2ccc(C3CC3)cc2F)CCCN1c1cnc(C(N)=O)c(Nc2cc(CN3CCCCC3)ns2)n1	> 10000 nM
CN(C)C(=O)N[C@H]1CCCN(c2cnc(C(N)=O)c(Nc3ccc4ncccc4c3)n2)[C@H]1CO (racemic)	> 10000 nM
C[C@@H]1[C@H](N2CCN(C)C2=O)CCCN1c1cnc(C(N)=O)c(Nc2ccc(C3(C)CCN(C4CC4)CC3)cc2)n1	100 to 1000 nM
C[C@@H]1[C@H](NC(=O)c2ccc(C3CC3)cc2F)CCCN1c1cnc(C(N)=O)c(Nc2ccc(CN3CCN(C)CC3)cc2)n1	100 to 1000 nM
Cc1cc(Nc2nc(N3CCC[C@@H](NC(=O)c4ccc(C(C)(C)O)cc4)[C@H]3C)cnc2C(N)=O)sn1	100 to 1000 nM
C[C@@H]1[C@H](NC(=O)c2ccc(C3CC3)cc2Cl)CCCN1c1cnc(C(N)=O)c(Nc2ccc(N3CCN(C)CC3)cc2)n1	100 to 1000 nM
CN(C)c1ccc2c(=O)n([C@@H]3CCCN(c4cnc(C(N)=O)c(Nc5cnn(C)c5)n4)C3)ccc2c1	1000 to 10000 nM
C[C@@H]1[C@H](NC(=O)N(C)C)CCCN1c1cnc(C(N)=O)c(Nc2ccc(N3CCN(C4CCCC4)CC3)cc2)n1	100 to 1000 nM
CC(C)n1cc(Nc2nc(N3CCC[C@@H](NC(=O)c4ccc(C5CC5)cc4F)[C@H]3C)cnc2C(N)=O)cn1	1000 to 10000 nM
C[C@@H]1[C@H](NC(=O)c2ccc(C3CC3)cc2F)CCCN1c1cnc(C(N)=O)c(Nc2ccc(N3CCN(C)C[C@@H]3C)cc2)n1	100 to 1000 nM
NC(=O)c1ncc(N2CCC[C@@H](n3ccc4cc(C5CC5)ccc4c3=O)C2)nc1Nc1ccc2ncccc2c1	> 10000 nM
